Each recorded value in this set is attributed to ChEMBL document CHEMBL1127600.

Assignment: determine reported log10 IC50 for the given molecules.
Target: Neprilysin (Oryctolagus cuniculus, UniProt P08049)
Sequence (P08049 whole entry): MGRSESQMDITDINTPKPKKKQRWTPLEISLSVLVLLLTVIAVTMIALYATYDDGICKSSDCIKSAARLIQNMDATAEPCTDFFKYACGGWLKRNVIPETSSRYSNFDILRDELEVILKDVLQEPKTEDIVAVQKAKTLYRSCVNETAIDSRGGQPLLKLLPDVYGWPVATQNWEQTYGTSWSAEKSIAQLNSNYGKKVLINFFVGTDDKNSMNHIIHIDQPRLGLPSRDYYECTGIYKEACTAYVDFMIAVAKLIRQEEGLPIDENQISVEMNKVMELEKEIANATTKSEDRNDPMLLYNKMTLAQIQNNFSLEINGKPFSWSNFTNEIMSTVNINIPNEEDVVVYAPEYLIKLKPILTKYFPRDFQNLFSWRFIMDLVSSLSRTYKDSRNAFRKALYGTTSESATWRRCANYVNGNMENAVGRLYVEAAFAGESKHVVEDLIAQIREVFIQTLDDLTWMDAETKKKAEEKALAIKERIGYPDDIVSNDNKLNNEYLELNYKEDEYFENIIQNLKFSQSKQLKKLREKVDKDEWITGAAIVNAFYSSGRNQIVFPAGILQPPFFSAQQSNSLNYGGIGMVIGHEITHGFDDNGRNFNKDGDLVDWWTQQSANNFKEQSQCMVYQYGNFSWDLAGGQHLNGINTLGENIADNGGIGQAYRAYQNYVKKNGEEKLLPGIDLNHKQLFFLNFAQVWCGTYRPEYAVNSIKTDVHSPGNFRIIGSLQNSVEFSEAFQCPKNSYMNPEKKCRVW
Test: In vitro inhibitory activity against neutral endopeptidase (NEP)
Transform log10 | Measure IC50 | Unit nM

Qu. Dear colleague, I am looking for the recorded log10 IC50 of the following molecule: O=C(N[C@H](CSCc1ccccc1)C(=O)O)[C@@H](CS)Cc1ccccc1
Ans. 0.95

Qu. Request: CC(C)(C)SC[C@@H](NC(=O)[C@@H](CS)Cc1ccccc1)C(=O)O
Ans. 1.69

Qu. Request: CSCC[C@@H](NC(=O)[C@@H](CS)Cc1ccccc1C)C(=O)O
Ans. 0.85

Qu. Request: O=C(N[C@H](CSCc1ccccc1)C(=O)O)[C@H](CS)Cc1ccc(Cl)cc1
Ans. 2.17

Qu. Request: C[C@H](CS)C(=O)N[C@H](CSCc1ccccc1)C(=O)O
Ans. 1.66

Qu. Request: O=C(N[C@H](CSCc1ccccc1)C(=O)O)C(CS)Cc1ccccc1 (single isomer, unassigned)
Ans. 1.15

Qu. Request: CCSC[C@@H](NC(=O)[C@@H](CS)Cc1ccccc1)C(=O)O
Ans. 0.38

Qu. Request: Cc1ccc(CSC[C@@H](NC(=O)[C@@H](CS)Cc2ccc(-c3ccccc3)cc2)C(=O)O)cc1
Ans. 2.26
